Numbers sourced from PubChem BioAssay (NCI).

Test system: HCC-2998 colon
METHOD_NOTES: NCI-60 one-dose screen, 48 h (100 = growth as untreated, 0 = no growth, -100 = all killed)
MEASUREMENT_PARAMETERS: 10 µM
Experimental: Growth inhibition of the HCC-2998 human tumor cell line is measured as a screen for anti-cancer activity. Cells are grown in 96 well plates and exposed to the test compound for 48 hours. Compounds are tested at a single concentration, which is 10^-5 M for most compounds. The reported endpoint is percent growth (GI% or GIPRCNT), where numbers from 0 - 100% represent growth inhibition, and numbers from -100% - 0 represent cell death. For example, a value of 40 represents 60% growth inhibition. […]
This is part of a sample that, as a whole, favours compounds with a hit. Of some 83,000 tested, about 20% had one in any assay.
This listing pairs compounds with measured growth.
Give the value, in units of %, as a plain number.

Consider the worked cases shown below.
COMPOUND: O=C1N=NC2=C1c1c3ccccc3c(O)n1CC2
TESTED_SYSTEM: HCC-2998 colon
READOUT_VALUE: 101
//
COMPOUND: COc1cccc(C(=O)Nc2ccc(CN3CCc4nc5cc(OC)c(OC)cc5cc43)cc2)c1
TESTED_SYSTEM: HCC-2998 colon
READOUT_VALUE: 14.1
//
COMPOUND: Cc1ccc(Nc2cc(C)nc(NCCCNc3ccnc4cc(Cl)ccc34)n2)cc1
TESTED_SYSTEM: HCC-2998 colon
READOUT_VALUE: -86.3
//
COMPOUND: COc1ccc2c(c1)C(=O)c1c-2c(=O)n(CCCN(C)C)c2cc(OC)c(OC)cc12
TESTED_SYSTEM: HCC-2998 colon
READOUT_VALUE: 82.8
//
COMPOUND: COc1ccc(Cn2c(C(N)=O)cc3c2-c2nc(N)ncc2CCC3)cc1
TESTED_SYSTEM: HCC-2998 colon
READOUT_VALUE: 104

Response field growth (HCC-2998 colon) for item CC(C)=CCc1cc(O)cc2c1OC(C=C(C)C)C1=C2C(=O)C2=C(C1=O)S(=O)(=O)CCN2 (stereo not drawn) : 36.4

Response field growth (HCC-2998 colon) for item CCCC#CCN(CC)CC : 120

Response field growth (HCC-2998 colon) for item COc1cc(C2CC(c3ccc(Nc4ccnc5cc(Cl)ccc45)cc3)=NN2c2ccc(Cl)cc2)cc(OC)c1OC (stereo not drawn) : 55.4

Response field growth (HCC-2998 colon) for item CC(C)N(CCNc1nc(C(Cl)(Cl)Cl)nc2cc(Cl)ccc12)C(C)C : -50.2

Response field growth (HCC-2998 colon) for item O=C(/C(=C/c1ccccc1)CN1CCCCC1)c1ccccc1 : -91

Response field growth (HCC-2998 colon) for item CS(=O)(=O)Nc1ccc(Nc2c3ccccc3nc3cc([N+](=O)[O-])ccc23)cc1 : 32.3

Response field growth (HCC-2998 colon) for item CCN(CC)CCOc1nc2ccccc2c2c1-c1ccc(OC)cc1C2=O : 14.8

Response field growth (HCC-2998 colon) for item Cc1ccc(C(=O)N2C/C(=C/c3ccccc3)C(=O)/C(=C/c3ccccc3)C2)cc1 : -48
